- System: HCT-15 colon
- method: NCI-60 one-dose screen, 48 h
- condition.context: 10 µM unless noted
About 83,000 compounds went through this panel and 20% of them were active in at least one assay; those are over-represented in the sample as a whole. Calls of active or inactive are those of the source. Rule for the calls: active = growth percent below 10; inactive = the rest.
Response enum: active, inactive

As a guide, the following entries are already answered.
compound=Cc1ccc2c(-n3nc(C#N)c(C#N)c3N)cc(=O)[nH]c2c1 assigned_class=inactive
compound="CC(=O)ON1CCCC(P(=O)(OCCSC(=O)C(C)(C)C)OCCSC(=O)C(C)(C)C)C1=O (centres undefined)" assigned_class=inactive
compound=C/C(=N\O)[C@@H]1CC[C@]2(CO)CC[C@]3(C)[C@H](CC[C@@H]4[C@@]5(C)CCCNC(C)(C)[C@@H]5CC[C@]43C)[C@@H]12 assigned_class=inactive
compound=CCn1cc(CNc2ccc(C(=O)Nc3cc4cc(OC)c(OC)cc4c(C)n3)cc2)cn1 assigned_class=inactive
compound="CC1=C(C(=O)Nc2ccccc2)C(c2ccc3c(c2)OCO3)NC(=S)N1 (centres undefined)" assigned_class=inactive
compound=O=C(Nc1cnc(Nc2ccc(N3CCOCC3)nc2)nc1Oc1ccc(C(F)(F)F)cc1)c1ccncc1 assigned_class=inactive

# lookup: test call for Nn1c(=O)c(=O)[nH]c2c(cnn2-c2ccccc2)c1=O
inactive

Then what about the compound C=CCN1C(=O)c2cccc3c(N4CCOCC4)ccc(c23)C1=O ?
active

Then what about the compound CCOC(=O)c1[nH]c2c(c1C)-c1[nH]c(=O)c(S(=O)(=O)c3ccccc3)cc1SC2 ?
inactive

Then what about the compound C[n+]1ccc(CCc2c[nH]c3ccccc23)cc1 ?
inactive

Then what about the compound Cc1ccc(C)c(/C=C2\CN(C(=O)OC(C)(C)C)C/C(=C\c3cc(C)ccc3C)C2=O)c1 ?
inactive

Then what about the compound CC/C=C\C[C@H](O)C/C=C1/C(=O)C=C[C@@H]1C/C=C\CCCC(=O)O ?
inactive

Then what about the compound O=C(CN1CCN(c2cc3c(cc2F)c(=O)c(C(=O)O)cn3C2CC2)CC1)N/N=C/c1ccco1 ?
inactive

* * *

- System: MOLT-4 leukemia
- method: NCI-60 one-dose screen, 48 h
- condition.context: 10 µM unless noted
About 83,000 compounds went through this panel and 20% of them were active in at least one assay; those are over-represented in the sample as a whole. Active and inactive are the calls of the source. How the source made its calls: active means growth percent below 10; inactive means the rest.
Response enum: class 1 for active, class 0 for inactive

As a guide, the following entries are already answered.
compound=CC1(C)CC(=O)c2c(nn(-c3ccc(Br)cc3)c2-c2cn(-c3ccccc3)nc2-c2cccnc2)C1 assigned_class="class 0"
compound=CN(C)c1ccc(-c2nc(-c3ccccc3)c(-c3ccccc3)[nH]2)cc1 assigned_class="class 0"
compound=O=C(NNc1cnccn1)c1nc2cc(F)ccc2n2cccc12 assigned_class="class 1"
compound="Nc1nc(N)c2c(n1)NC(c1cccc(Nc3ccnc4cc(C(F)(F)F)ccc34)c1)CC(c1ccccc1)=N2 (stereo not given)" assigned_class="class 1"

# lookup: test call for CNC1=C([N+](=O)[O-])C(c2ccc(OC)cc2)C(C#N)=C(c2cccs2)O1 (stereo not given)
class 0

* * *

- Tested on: SK-MEL-5 melanoma
- method: NCI-60 one-dose screen, 48 h
- condition.context: 10 µM unless noted
This is part of a sample that, as a whole, favours compounds with a hit. Of some 83,000 tested, about 20% had one in any assay. Active and inactive are the calls of the source. Rule for the calls: active = growth percent below 10; inactive = the rest.
Response enum: active, inactive

compound="COc1ccc(/C=C/C(c2cc(OC)c(OC)c(OC)c2)n2cncn2)cc1 (stereo not drawn)" assigned_class=inactive

# lookup: test call for CC1(C)[C@@H](O[C@@H]2OC[C@@H](O[C@@H]3O[C@H](CO)[C@@H](O)[C@H](O)[C@H]3O[C@@H]3OC[C@@H](O)[C@H](O)[C@H]3O)[C@H](O)[C@H]2O[C@@H]2O[C@H](CO)[C@@H](O)[C@H](O)[C@H]2O)CC[C@]2(C)[C@H]3CC[C@]45OC[C@@]6(CC[C@](C)(C=O)C[C@H]64)[C@H](O)C[C@@]5(C)[C@]3(C)CC[C@@H]12
active

Then what about the compound C/C(Cc1ccc(Cl)cc1)=C(\c1ccc(OCCCN(C)C)cc1)c1ccc(OC(=O)Cc2ccccc2)cc1 ?
inactive

Then what about the compound NC(=O)c1c(NC(=O)c2cccc(C(F)(F)F)c2)sc2c1CCC(=O)C2 ?
active

Then what about the compound Cc1ccc(S(=O)(=O)c2nc(-c3ccccc3)oc2Sc2nc3ccccc3s2)cc1 ?
inactive

Then what about the compound Cc1n[nH]c2ccc(Br)cc2c1=O ?
inactive

Then what about the compound COc1ccc(C(=O)/C=C/c2ccc(N3CCCCC3)cc2)cc1OC ?
inactive

Then what about the compound CC/C=C\C[C@H](O)C/C=C1/C(=O)C=C[C@@H]1C/C=C\CCCC(=O)O ?
inactive

Then what about the compound CCc1n(Cc2ccc3ccccc3n2)cc[n+]1Cc1ccc2ccccc2n1 ?
active

Cited source for all entries: PubChem BioAssay (NCI)
